Item-by-item account of koff
- assay_system: human DLL3 protein (extracellular segment, His tag) (human) (UniProt Q9NYJ7)
- Sequence (Q9NYJ7 27-492): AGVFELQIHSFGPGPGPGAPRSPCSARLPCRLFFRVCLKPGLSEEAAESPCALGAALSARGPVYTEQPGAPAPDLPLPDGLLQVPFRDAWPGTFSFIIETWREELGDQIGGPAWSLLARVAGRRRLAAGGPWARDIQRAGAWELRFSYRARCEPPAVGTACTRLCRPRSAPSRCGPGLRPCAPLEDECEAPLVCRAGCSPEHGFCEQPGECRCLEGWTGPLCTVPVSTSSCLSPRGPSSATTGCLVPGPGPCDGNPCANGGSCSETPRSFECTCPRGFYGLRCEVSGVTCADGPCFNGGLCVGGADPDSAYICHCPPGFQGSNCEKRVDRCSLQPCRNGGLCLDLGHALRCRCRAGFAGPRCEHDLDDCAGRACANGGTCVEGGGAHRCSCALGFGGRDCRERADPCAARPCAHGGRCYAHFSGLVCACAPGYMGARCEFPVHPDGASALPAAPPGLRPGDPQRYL
- test_name: SPR (Biacore 8K), antibody captured on Protein A chip, DLL3 antigen in solution, 1:1 Langmuir fit
Express your answer in s⁻¹, writing the number without its unit.

binder	koff, s⁻¹
Hab008L1H2a-hFc (scFv, part only; not given: VL-VH linker and human IgG1 Fc, V domains shown, not shown: another chain or arm of the molecule; a dimerising Fc or GST; small tags and cut ends) VL: DIQMTQSPSSLSASVGDRVTITCKASQNVGTAVAWYQQKPGKSPKLLIFSASIRYTGVPSRFSGSGSGTDFTLTISSLQPEDFATYYCQQYSSSPYTFGGGTKVEIK VH: EVQLVQSGAEVKKPGASVKVSCKASGYTFTDYYMNWVRQAPGQRLEWMGIINPYNSGTSYNQKFRGRVTLTVDKSASTAYMELSSLRSEDTAVYYCSRYDYDYDVEGAMDYWGQGTTVTVSS	0.000324
Hab009VL2aVH1-hFc (scFv, part only; not given: VL-VH linker and human IgG1 Fc, V domains shown, not shown: another chain or arm of the molecule; a dimerising Fc or GST; small tags and cut ends) VL: DIVMTQSPLSLPVTPGEPASISCRASQTISDYLHWYLQKPGQSPRLLIKYASQSISGVPDRFSGSGSGTDFTLKISRVEAEDVGVYYCQQGHSFPLTFGQGTKLEIK VH: EVQLVQSGAEVKKPGASVKVSCKASGYTFTSYWMHWVRQAPGQRLEWMGTIYPGNSDTRYNQKFKDRVTITADTSASTAYMELSSLRSEDTAVYYCTRSYDYGDLDYWGQGTTVTVSS	0.0019

I have this binder here, Hab015VL4VH1b-hFc (scFv, part only; not given: VL-VH linker and human IgG1 Fc, V domains shown, not shown: another chain or arm of the molecule; a dimerising Fc or GST; small tags and cut ends) VL: NIVLTQSPATLSLSPGERATLSCKASENVGTYVSWFQQKPGQSPRLLIYGASNRYTGIPARFSGSGSGTDFTLTISSLEPEDFAVYYCGQFYSFPSTFGGGTKVEIK VH: EVQLVESGGGLVKPGGSLRLSCAASGITFSNFWMNWVRQAPGKGLEWVGQIRLKSEDYATHYAESVKGRFTISREDSKNTVYLQMNSLKTEDTAVYYCTTGYYFDYWGQGTTVTVSS , and I need its recorded koff. 3.49e-05
